Each item that follows carries a reported speed of sound.
condition-details: 313.15 K; 101.33 kPa; Liquid; Sing-around technique in a fixed-path interferometer
Numbers after ± are expanded uncertainties.
value-kind: speed of sound

INSERT INTO results (molecule, value_kind, experimental_value) VALUES
  ('CC[n+]1cccc(C)c1.O=S(=O)([N-]S(=O)(=O)C(F)(F)F)C(F)(F)F', 'speed of sound', '1226.7 ± 1.5 m/s'),
  ('CC[n+]1ccccc1.O=S(=O)([N-]S(=O)(=O)C(F)(F)F)C(F)(F)F [1-ethylpyridinium bis[(trifluoromethyl)sulfonyl]imide]', 'speed of sound', '1235.6 ± 1.5 m/s'),
  ('CC[n+]1ccccc1C.O=S(=O)([N-]S(=O)(=O)C(F)(F)F)C(F)(F)F', 'speed of sound', '1266.3 ± 1.5 m/s'),
  ('CC[n+]1ccc(C)cc1.O=S(=O)([N-]S(=O)(=O)C(F)(F)F)C(F)(F)F', 'speed of sound', '1230.1 ± 1.5 m/s');

###

condition-details: 298.15 K; 101.33 kPa; Liquid; Vibrating tube method
± gives the expanded uncertainty stated by the source.
value-kind: mass density

INSERT INTO results (compound, experimental_value) VALUES
  ('CC[n+]1ccccc1.O=S(=O)([N-]S(=O)(=O)C(F)(F)F)C(F)(F)F [1-ethylpyridinium bis[(trifluoromethyl)sulfonyl]imide]', '1535.84 ± 0.71 kg/m3'),
  ('CC[n+]1ccccc1C.O=S(=O)([N-]S(=O)(=O)C(F)(F)F)C(F)(F)F', '1505.35 ± 0.68 kg/m3'),
  ('CC[n+]1cccc(C)c1.O=S(=O)([N-]S(=O)(=O)C(F)(F)F)C(F)(F)F', '1488.54 ± 0.66 kg/m3'),
  ('CC[n+]1ccc(C)cc1.O=S(=O)([N-]S(=O)(=O)C(F)(F)F)C(F)(F)F', '1486.67 ± 0.66 kg/m3');

###

Each item that follows carries a reported refractive index.
test-name: refractive index (Na D-line) (dimensionless)
condition-details: 338.15 K; 101.33 kPa; Liquid; Standard Abbe refractometry
value-kind: refractive index

INSERT INTO assay_data (molecule, experimental_value) VALUES
  ('CC[n+]1ccc(C)cc1.O=S(=O)([N-]S(=O)(=O)C(F)(F)F)C(F)(F)F', 1.43195),
  ('CC[n+]1ccccc1C.O=S(=O)([N-]S(=O)(=O)C(F)(F)F)C(F)(F)F', 1.43599),
  ('CC[n+]1ccccc1.O=S(=O)([N-]S(=O)(=O)C(F)(F)F)C(F)(F)F [1-ethylpyridinium bis[(trifluoromethyl)sulfonyl]imide]', 1.42905),
  ('CC[n+]1cccc(C)c1.O=S(=O)([N-]S(=O)(=O)C(F)(F)F)C(F)(F)F', 1.4316);

###

test-name: refractive index (Na D-line) (dimensionless)
condition-details: 328.15 K; 101.33 kPa; Liquid; Standard Abbe refractometry
Numbers after ± are expanded uncertainties.
Each item that follows carries a reported refractive index.
value-kind: refractive index

INSERT INTO results (compound, value_kind, experimental_value) VALUES
  ('CC[n+]1ccccc1C.O=S(=O)([N-]S(=O)(=O)C(F)(F)F)C(F)(F)F', 'refractive index', '1.4388 ± 0.00037'),
  ('CC[n+]1ccc(C)cc1.O=S(=O)([N-]S(=O)(=O)C(F)(F)F)C(F)(F)F', 'refractive index', '1.43493 ± 0.00037'),
  ('CC[n+]1ccccc1.O=S(=O)([N-]S(=O)(=O)C(F)(F)F)C(F)(F)F [1-ethylpyridinium bis[(trifluoromethyl)sulfonyl]imide]', 'refractive index', '1.43193 ± 0.00037'),
  ('CC[n+]1cccc(C)c1.O=S(=O)([N-]S(=O)(=O)C(F)(F)F)C(F)(F)F', 'refractive index', '1.43451 ± 0.00037');
